Measured values drawn from patent US20240279215A1 for this set.

# TGT: human NAMPT (Homo sapiens (Human), UniProt P43490)
# Sequence (P43490 whole entry): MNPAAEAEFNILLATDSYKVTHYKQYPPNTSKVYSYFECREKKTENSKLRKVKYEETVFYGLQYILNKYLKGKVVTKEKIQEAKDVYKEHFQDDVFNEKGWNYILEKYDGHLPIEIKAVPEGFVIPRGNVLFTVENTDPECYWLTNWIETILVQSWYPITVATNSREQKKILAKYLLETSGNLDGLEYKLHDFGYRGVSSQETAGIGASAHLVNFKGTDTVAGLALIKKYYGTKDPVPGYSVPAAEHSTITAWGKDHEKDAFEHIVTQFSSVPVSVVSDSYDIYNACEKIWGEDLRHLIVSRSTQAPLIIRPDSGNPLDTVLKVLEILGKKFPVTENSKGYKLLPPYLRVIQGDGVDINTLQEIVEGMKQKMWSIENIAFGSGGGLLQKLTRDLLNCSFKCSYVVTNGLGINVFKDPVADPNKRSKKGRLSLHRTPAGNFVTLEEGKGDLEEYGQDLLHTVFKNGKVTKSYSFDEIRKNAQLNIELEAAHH
# MEASUREMENT_PROTOCOL: NMN fluorescence biochemical assay (human recombinant NAMPT enzyme assay)
Given measured AC1.4 Human, output 1 if it is greater than or equal to 0.8 µM and 0 if not.

COMPOUND: CC(C)(O)CN1CCN(Cc2ccc(NC(=O)OCc3ccc(Cl)cc3)cc2)CC1 [Compound 177]
ASSIGNED_LABEL: 1
//
COMPOUND: C[C@H](NC(=O)C1CC2(C1)CC(F)(F)C2)c1ccc(NC(=O)OCc2cnco2)cc1 [Compound 22]
ASSIGNED_LABEL: 0
//
COMPOUND: CC(=O)N1CCN(Cc2ccc(NC(=O)OCc3ccc(Cl)cc3)cc2)CC1 [Compound 191]
ASSIGNED_LABEL: 1
//
COMPOUND: C[C@H](NC(=O)c1ccnn1C1CCOCC1)c1ccc(NC(=O)OCc2ccc(Cl)cc2)cc1 [Compound 20]
ASSIGNED_LABEL: 0
//
COMPOUND: Cc1cnc(C(=O)N[C@@H](C)c2ccc(NC(=O)OCc3ccc(Cl)cc3)cc2)o1 [Compound 267]
ASSIGNED_LABEL: 1
//
COMPOUND: COc1ccc(COC(=O)Nc2ccc([C@H](C)C(=O)N3CCC[C@H]3CO)cc2)cc1 [Compound 341]
ASSIGNED_LABEL: 1
//
COMPOUND: O=C(Nc1ccc(CNC(=O)C2CCOCC2)cc1)OCc1ccc(Cl)cc1 [Compound 285]
ASSIGNED_LABEL: 1
